- Measurement description: Oral bioavailability in Sprague-Dawley rat plasma by measuring dose-corrected area under the curve (AUC) oral divided by AUC intravenous at 100 mg/kg measured after 0.083 to 24 hrs by HPLC analysis relative to control
- Format: ADME, organism-based
- Measurement setup: time 0.083-24 hrs
Test readout: bioavailability (%)
# number only, unit % dropped from output

(Q) Endpoint output: bioavailability of "O[C@@H]1CCCC[C@H]1CNc1cc(Br)cc2[nH]ncc12" . Value?
(A) 73.2

---

- Measurement description: Plasma protein binding in Kunming mouse assessed as binding rate by LC-MS/MS analysis relative to control
- Assay type: ADME
- Measurement setup: read-out: PPB (converted)
Test readout: fraction unbound
// response body must contain only the number

(Q) Endpoint output: fraction unbound of "O[C@@H]1CCCC[C@H]1CNc1cc(Br)cc2[nH]ncc12" . Value?
(A) 0.0073
